- measured on: human CB2 receptors (Homo sapiens (Human))
- Sequence (P34972 whole entry): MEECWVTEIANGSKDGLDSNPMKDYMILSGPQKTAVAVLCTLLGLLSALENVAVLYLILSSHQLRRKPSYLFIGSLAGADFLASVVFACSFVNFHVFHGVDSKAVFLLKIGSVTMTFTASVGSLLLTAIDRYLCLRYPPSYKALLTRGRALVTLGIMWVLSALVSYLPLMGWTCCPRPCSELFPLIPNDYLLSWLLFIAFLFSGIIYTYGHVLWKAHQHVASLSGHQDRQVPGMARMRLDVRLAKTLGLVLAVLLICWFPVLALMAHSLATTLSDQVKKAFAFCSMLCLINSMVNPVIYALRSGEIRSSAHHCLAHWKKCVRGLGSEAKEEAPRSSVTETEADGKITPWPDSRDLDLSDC
- method: cAMP assay, CHO cells expressing human CB2 receptors
- Type: cell-based
- applied conditions: CHO cells expressing human CB2, cAMP; read-out: human CB2 EC50
pEC50: −log10 of the molar value.
reported metric: pEC50

# compound, observed measurement
data = [
    ("CCC(CC)(NC(=O)c1ccc(C(F)(F)F)c(OCC2CC2)n1)C(=O)N1CC(F)(F)C1 [Example 316]", 8.51),
    ("CC(C)C[C@H](NC(=O)c1ccc(N2CCCC2C)c(OCC2CC2)n1)C(N)=O (some centres unmarked) [Example 32]", 8.81),
    ("CCC(CC)(NC(=O)c1ccc(N2CC(F)(F)C2)c(OCC2CC2)n1)C(=O)N1CC(F)(F)C1 [Example 307]", 8.33),
    ("Cc1nc(C(C)(C)NC(=O)c2ccc(C3CC3)c(OCc3ccccn3)n2)no1 [Example 199]", 6.82),
    ("Cc1nc([C@H](CC(C)C)NC(=O)c2cccc(C(O)c3ccc(F)cc3)n2)no1 (some centres unmarked) [Example 318]", 7.60),
    ("CC(C)C[C@H](NC(=O)c1ccc(C(F)(F)F)c(OCC2CC2)n1)C(N)=O [Example 118]", 7.87),
    ("CC(C)(O)[C@H](CC1CC1)NC(=O)c1ccc(C2CC2)c(OCC2CC2)n1 [Example 139]", 6.95),
    ("Cc1nc([C@H](CC2CC2)NC(=O)c2ccc(N3CC(F)(F)C3)c(-c3cccc(Cl)c3)n2)no1 [Example 164]", 6.60),
]

----------
- measured on: human CB1 receptors (Homo sapiens (Human), UniProt P21554)
- Sequence (P21554 whole entry): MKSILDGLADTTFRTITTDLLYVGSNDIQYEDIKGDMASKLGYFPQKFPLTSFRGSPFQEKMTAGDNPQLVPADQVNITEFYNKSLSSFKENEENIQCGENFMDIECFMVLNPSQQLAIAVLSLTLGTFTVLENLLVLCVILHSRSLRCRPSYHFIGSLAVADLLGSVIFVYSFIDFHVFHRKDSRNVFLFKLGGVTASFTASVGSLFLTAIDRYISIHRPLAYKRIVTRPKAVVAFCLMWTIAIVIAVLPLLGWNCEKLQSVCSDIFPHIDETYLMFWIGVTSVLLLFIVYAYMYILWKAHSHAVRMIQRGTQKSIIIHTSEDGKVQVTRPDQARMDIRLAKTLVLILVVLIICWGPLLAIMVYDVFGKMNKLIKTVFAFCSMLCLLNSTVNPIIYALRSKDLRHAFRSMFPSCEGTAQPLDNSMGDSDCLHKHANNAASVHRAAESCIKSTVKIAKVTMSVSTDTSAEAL
- method: cAMP assay, CHO cells expressing human CB1 receptors
- Type: cell-based
- applied conditions: CHO cells expressing human CB1, cAMP; read-out: human CB1 EC50
reported metric: EC50

# compound, reported metric, observed measurement
measured = [
    ("CC(C)(NC(=O)c1ccc(N2CC(F)(F)C2)c(OCC(F)(F)F)n1)c1nccs1 [Example 288]", "EC50", "> 10 µM"),
    ("Cc1nc(C(C)(C)NC(=O)c2ccc(N3CCCC3)c(OCC3CC3)n2)no1 [Example 33]", "EC50", "> 10 µM"),
    ("CC(C)CC(NC(=O)c1ccc(N2CC(F)(F)C2)c(OCC2CC2)n1)c1ccccn1 (stereo not drawn) [Example 315]", "EC50", "2.32 µM"),
    ("O=C(N[C@H]1CCOC1=O)c1ccc(C2CC2)c(OCC2CC2)n1 [Example 362]", "EC50", "> 10 µM"),
    ("CC(C)(NC(=O)c1ccc(C(F)(F)F)c(OCC2CC2)n1)c1nccs1 [Example 121]", "EC50", "1.35 µM"),
    ("CNC(=O)C(C)(C)NC(=O)c1ccc(N2CC(F)(F)C2)c(OCC2CC2)n1 [Example 87]", "EC50", "> 10 µM"),
    ("CC1(COc2nc(C(=O)NC3(c4nccs4)COC3)ccc2Br)COC1 [Example 281]", "EC50", "> 10 µM"),
    ("CNC(=O)[C@@H](NC(=O)c1ccc(Br)c(OCC2CCCO2)n1)C(C)(C)C (stereo partly drawn) [Example 188]", "EC50", "0.375 µM"),
    ("CC1CC(NC(=O)c2cccc(-c3cccc(Cl)c3)n2)CCO1 (stereo not drawn) [Example 26]", "EC50", "> 10 µM"),
]
